Counter-ions that a name gives are not always drawn.
readout_type: melting point

Examples with their reported melting point follow.
>>> obs_value("Nc1noc2c1c(Nc1ccccc1)nc1ccccc12 (as salt: salt) [Compound 19]")
"266 to 267 °C"
>>> obs_value("Nc1noc2c1c(Nc1ccc(O)cc1)nc1ccccc12 (as salt: salt) [Compound 29]")
"236 to 237 °C"
>>> obs_value("Cc1ccc(Nc2nc3ccccc3c3onc(N)c23)cc1 (as salt: salt) [Compound 33]")
"173 to 175 °C"
>>> obs_value("Cn1nc(N)c2c(Nc3ccccc3O)nc3ccccc3c21 (as salt: salt) [Compound 11]")
"233 to 235 °C"
>>> obs_value("COc1cccc(Nc2nc3ccccc3c3onc(N)c23)c1 (as salt: salt) [Compound 22]")
"262 to 263 °C"

Data request, read-out melting point, for CSc1ccc(Nc2nc3ccccc3c3c2c(N)nn3C)cc1 (as salt: salt) [Compound 9]
233 to 235 °C

Then Cn1nc(N)c2c(Nc3ccc(C(=O)O)cc3)nc3ccccc3c21 (as salt: salt) [Compound 15] ?
325 to 326 °C

Please answer likewise for COc1cccc(Nc2nc3ccccc3c3c2c(N)nn3C)c1 (as salt: salt) [Compound 6]
284 to 286 °C

Now consider CC(=O)c1ccc(Nc2nc3ccccc3c3c2c(N)nn3C)cc1 [Compound 10] .
272 to 274 °C

Same again, this time with COc1ccccc1Nc1nc2ccccc2c2c1c(N)nn2C [Compound 5]
229 to 230 °C

Ok, now Cn1nc(N)c2c(Nc3ccc(C(F)(F)F)cc3)nc3ccccc3c21 (as salt: salt) [Compound 14]
219 to 220 °C

Further, for Nc1noc2c1c(Nc1ccccc1O)nc1ccccc12 (as salt: salt) [Compound 28] ?
240 to 241 °C

Request: COc1cc(Nc2nc3ccccc3c3c2c(N)nn3C)cc(OC)c1OC (as salt: salt) [Compound 8]
219 to 220 °C

What about Cn1nc(N)c2c(Nc3ccc(F)cc3)nc3ccccc3c21 (as salt: salt) [Compound 4] ?
218 to 219 °C

Note, next up: COc1ccc(Nc2nc3ccccc3c3c2c(N)nn3C)cc1 (as salt: salt) [Compound 7]
193 to 194 °C

Try Nc1noc2c1c(Nc1ccc(C(F)(F)F)cc1)nc1ccccc12 (as salt: salt) [Compound 30] next.
227 to 229 °C

How about this molecule: Cn1nc(N)c2c(Nc3ccc(Cl)cc3)nc3ccccc3c21 (as salt: salt) [Compound 17]
281 to 282 °C

And then COc1ccc(Nc2nc3ccccc3c3onc(N)c23)cc1 (as salt: salt) [Compound 23] , what is it?
257 to 259 °C

---

Where a name gives a salt, the structure may show the parent alone.
# melting point per record follows

For orientation, consider the following solved cases.
>>> obs_value("Nc1noc2c1c(Nc1ccc(Cl)cc1)nc1ccccc12 (as salt: salt)")
"268 to 269 °C"
>>> obs_value("CC(=O)c1cccc(Nc2nc3ccccc3c3onc(N)c23)c1 (as salt: salt)")
"249 to 250 °C"
>>> obs_value("Nc1noc2c1c(Nc1ccc(F)cc1)nc1ccccc12 (as salt: salt)")
"271 to 272 °C"
>>> obs_value("COc1ccccc1Nc1nc2ccccc2c2onc(N)c12 (as salt: salt)")
"261 to 262 °C"

// melting point lookup, key: Cc1ccc(Nc2nc3ccccc3c3c2c(N)nn3C)cc1 (as salt: salt)
253 to 255 °C

Similarly, Nc1noc2c1c(Nc1ccc(C(=O)O)cc1)nc1ccccc12 (as salt: salt) ?
308 to 310 °C

Here is the next molecule: COc1cc(Nc2nc3ccccc3c3onc(N)c23)cc(OC)c1OC (as salt: salt)
264 to 266 °C

Next molecule: Cn1nc(N)c2c(Nc3ccc(O)cc3)nc3ccccc3c21 (as salt: salt)
320 to 322 °C

Follow-up item: CSc1ccc(Nc2nc3ccccc3c3onc(N)c23)cc1 (as salt: salt)
246 to 247 °C

Could you do the same for CC(=O)c1ccc(Nc2nc3ccccc3c3onc(N)c23)cc1 (as salt: salt) , please?
255 to 257 °C

What about this molecule? Cn1nc(N)c2c(Nc3cccc(O)c3)nc3ccccc3c21 (as salt: salt)
190 to 191 °C

Also check Cn1nc(N)c2c(Nc3ccccc3S)nc3ccccc3c21 (as salt: salt)
235 to 236 °C
